# Test system: viable cells in culture
# TEST_METHOD_NOTES: Cell viability assay (CellTiter-Glo Luminescent Cell Viability Assay, ATP quantitation, percent of vehicle control)
Items are presented alongside their recorded Average Cell Viability after 24 Hours (% DMSO).
METRIC: Average Cell Viability after 24 Hours (% DMSO)

| COMPOUND | ASSAY_VALUE |
| --- | --- |
| Cc1ccnc(NC(c2cccc(Br)c2)c2ccc3ccc(C)nc3c2O)c1 (stereo not drawn) | 74.39 |
| COc1ccc(C(NC(=O)C(C)C)c2cc([N+](=O)[O-])c3cccnc3c2O)cc1OC (stereo not drawn) | 78.30 |
| CCc1nc2[nH]c3c(c(=O)n2n1)CCC3 | 99.48 |
| Cc1ccc(Nc2nc3nonc3nc2Nc2ccccc2F)cc1 | 72.00 |
| Cc1ccc(NCC(=O)N/N=C\c2cc(Br)cc(Br)c2O)cc1 | 75.55 |
| CC(=O)NC(c1ccc(C(C)C)cc1)c1ccc2cccnc2c1O (stereo not drawn) | 73.78 |
| COC(=O)c1ccc(NC(=O)CSc2nnc(CNC(=O)c3ccccc3)n2C)cc1 | 104.14 |
| Cc1ccn(CCCNC(=O)c2cc(-c3cccs3)on2)n1 | 82.67 |
| O=C(NCCc1c[nH]c2c(OCc3ccccc3)cccc12)c1cc(-c2cccs2)on1 | 94.63 |
| COc1ccc(C(=O)NC(c2ccc(Cl)cc2)c2cc(Cl)c3cccnc3c2O)cc1 (stereo not drawn) | 28.33 |
| CC(C)C(=O)NC(c1ccc(C(C)C)cc1)c1cc(Cl)c2cccnc2c1O (stereo not drawn) | 60.77 |
| CC(Oc1cccc2cccnc12)C(=O)N/N=C/c1cccc2cccnc12 (stereo not drawn) | 77.64 |
| CCCCC(=O)NC(c1ccc(OC)cc1)c1cc(Cl)c2cccnc2c1O (stereo not drawn) | 62.27 |
| Cc1ccccc1OCC(=O)OCc1ccc([N+](=O)[O-])cc1 | 99.62 |
| Cc1ccc(S(=O)(=O)Nc2ccccc2C(=O)NCCc2ccccc2)cc1[N+](=O)[O-] | 94.37 |
| C/C(=N\NC(=O)Cc1ccc(Cl)cc1)c1ccccn1 | 71.98 |
| O=C(NCCCN1CCOCC1)c1cc(-c2cccs2)on1 | 88.76 |
| Clc1ccc(OCc2nn3c(Cc4ccccc4)nnc3s2)c(Cl)c1 | 67.26 |
| O=C(CS(=O)(=O)c1ccc(F)cc1)Nc1nc(-c2ccccn2)cs1 | 73.09 |
| Cc1nn(C)cc1CNC(=O)C1C2CCC(O2)C1C(=O)O (stereo not drawn) | 48.07 |
| O=C(NCc1nccs1)c1cc(-c2cccs2)on1 | 119.54 |
| Cc1ccc(S(=O)(=O)CC(=O)Nc2ncc(-c3ccccn3)s2)cc1 | 81.39 |
| O=C(CC(NC1CCCCC1)C(=O)O)Nc1cccc([N+](=O)[O-])c1 (stereo not drawn) | 97.89 |
| C=CCc1c(C)nc(SCC(=O)Nc2cc(Cl)cc(Cl)c2)[nH]c1=O | 94.78 |
| COc1cccc(C(=O)NC(/C=C/c2ccccc2)c2cc(Cl)c3cccnc3c2O)c1 (stereo not drawn) | 75.48 |
| CCOC(=O)c1sc(-n2nc(C)c(Cc3ccc(C)cc3)c2O)nc1C | 70.45 |
| O=C(NCCc1ccncc1)c1cc(-c2cccs2)on1 | 103.34 |
| CCCC(=O)NC(c1ccc(Cl)cc1)c1cc([N+](=O)[O-])c2cccnc2c1O (stereo not drawn) | 85.35 |
| C=CCN(CC=C)CCCOc1ccccc1 | 96.87 |
| C=CCNS(=O)(=O)c1ccc(C(=O)N2CCCCC2C)cc1 (stereo not drawn) | 107.18 |
| Cc1nn2c(=O)c(Cc3cccc(Cl)c3)c(C)[nH]c2c1-c1ccccc1 | 77.99 |
| O=C(N/N=C/c1cc(Cl)ccc1O)c1ccc(Br)cc1 | 64.22 |
| COC(=O)CSc1nnc(-c2sc3cc(Cl)ccc3c2Cl)n1C | 60.23 |
| COC(=O)COc1ccc(CSc2nnc(-c3ccc(Cl)cc3)n2-c2ccccc2)cc1 | 29.68 |
| Cc1cc(NC(=O)C2c3ccccc3Oc3ccccc32)n(-c2nc(C)c(C)c(=O)[nH]2)n1 | 66.62 |
| CCOc1ccc(N2C(=O)CC(N3CCC4(CC3)OCCO4)C2=O)cc1 (stereo not drawn) | 108.82 |

These entries and their values trace back to patent US12404304B1.
